# Test: A CellTox Green Cytotoxicity Assay to monitor cytotoxicity in HEK293 cells - 8 hour (AID 1224884); note: nearly all actives have a fitted effect of over 35% in size
# Condition Set: CellTox Green fluorescence; series mostly up to 76.8 µM
# From the text: National Center for Advancing Translational Sciences [NCATS] NIH Chemical Genomics Center [NCGC] U.S. Environmental Protection Agency [EPA] National Institutes of Environmental Health Sciences [NIEHS] National Toxicology Program [NTP] Cell-based models are critical for drug discovery. […] Viable cells produce no appreciable increases in fluorescence. Therefore, the fluorescence signal produced by the binding interaction with dead cell DNA is proportional to cytotoxicity. […]
Records with an inconclusive call do not appear. The source made the active and inactive calls. Calls come from the whole dose curve; as a rule, active = well fitted activation curve with a large enough effect in the repeat runs; inconclusive = weak or mixed curves; inactive = flat fitted curve, though single readings scatter.
Respond only with the outcome that fits, drawn from active, inactive

Past entries and their recorded results:
{"Compound": "O=C1c2ccccc2C(=O)N1CCc1noc(-c2ccc(CN3CCCCCC3)s2)n1", "Category": "active"}
{"Compound": "C/C=C(/C(=C/C)c1ccc(O)cc1)c1ccc(O)cc1", "Category": "inactive"}
{"Compound": "CCC(OCCCOC)OC(C)=O (stereo not drawn)", "Category": "inactive"}
{"Compound": "CCc1ccccc1", "Category": "inactive"}

Task: Could you kindly confirm the outcome this assay logged for C=C1C[C@@]23CC[C@H]4[C@@](C)(CCC[C@@]4(C)C(=O)O[C@@H]4O[C@H](CO)[C@@H](O)[C@H](O)[C@H]4O)[C@@H]2CC[C@]1(O[C@@H]1O[C@H](CO)[C@@H](O)[C@H](O[C@@H]2O[C@H](CO)[C@@H](O)[C@H](O)[C@H]2O)[C@H]1O[C@@H]1O[C@H](CO)[C@@H](O)[C@H](O)[C@H]1O)C3 ?
Result: inactive

Task: Could you kindly confirm the outcome this assay logged for CC(CC1c2ccccc2CCc2ccccc21)CN(C)C (stereo not drawn) ?
Result: inactive

Task: Could you kindly confirm the outcome this assay logged for CNC(=O)c1cnn(-c2nc(N)c3ncn([C@@H]4O[C@H](CO)[C@@H](O)[C@H]4O)c3n2)c1 ?
Result: inactive

Task: Could you kindly confirm the outcome this assay logged for O=C1c2ccccc2C(=O)c2c(O)c(O)cc(O)c21 ?
Result: inactive

Task: Could you kindly confirm the outcome this assay logged for CCCCCCCCCCCCCCN(CCO)CCO ?
Result: active

Task: Could you kindly confirm the outcome this assay logged for COc1cc(Nc2c(C#N)cnc3cc(OCCCN4CCN(C)CC4)c(OC)cc23)c(Cl)cc1Cl ?
Result: inactive

Task: Could you kindly confirm the outcome this assay logged for OC(CCN1CCCC1)(c1ccccc1)C1CCCCC1 (stereo not drawn) ?
Result: inactive

Task: Could you kindly confirm the outcome this assay logged for CCCCN1CCCC1C(=O)Nc1c(C)cc(C)cc1C (stereo not drawn) ?
Result: active

Task: Could you kindly confirm the outcome this assay logged for CCOC(=O)c1ccc(OCCN2C[C@H](O)[C@@H](O)[C@H](O)[C@H]2CO)cc1 ?
Result: inactive

Task: Could you kindly confirm the outcome this assay logged for CCC(C)COC(C)=O (stereo not drawn) ?
Result: inactive

Task: Could you kindly confirm the outcome this assay logged for CN1C(C(=O)Nc2ccccn2)=C(O)c2sccc2S1(=O)=O ?
Result: inactive

Task: Could you kindly confirm the outcome this assay logged for COc1ncnc(NS(=O)(=O)c2ccc(N)cc2)c1OC ?
Result: inactive

Task: Could you kindly confirm the outcome this assay logged for CN1CCCC(CC2c3ccccc3Sc3ccccc32)C1 (stereo not drawn) ?
Result: inactive

Task: Could you kindly confirm the outcome this assay logged for CCCCCCCCC(CCCCCC)C(=O)O (stereo not drawn) ?
Result: inactive

Task: Could you kindly confirm the outcome this assay logged for CC(C)(C)CC(=O)OCC(=O)[C@@]1(O)CC[C@H]2[C@@H]3CCC4=CC(=O)C=C[C@]4(C)[C@H]3[C@@H](O)C[C@@]21C ?
Result: inactive

Task: Could you kindly confirm the outcome this assay logged for COc1ccccc1NC(=O)c1cc2ccccc2cc1O ?
Result: inactive

Task: Could you kindly confirm the outcome this assay logged for CCC1CO1 (stereo not drawn) ?
Result: inactive

Task: Could you kindly confirm the outcome this assay logged for COC(=O)c1nc(Cl)c(Cl)nc1N ?
Result: inactive

The values you see were collected from PubChem BioAssay (Tox21).
